test system: Plasmodium berghei; assay: Screen against P. berghei liver stage (PbLuc), transformed with Luciferase, at 2uM; format: functional, HepG2; settings: tested at 2 uM
About 2,700 (4%) of roughly 68,000 compounds showed an effect of 50% or more. This excerpt belongs to a sample that is enriched for strong results.
Please go through the items and note down their INHIBITION.
Give just the number in %; leave the unit off.

Reported INHIBITION ( `COc1nccc(N2CC[C@H](N3CCOCC3)[C@H](CCCO)C2)c1C#N` ) = -47.16

Reported INHIBITION ( CN(Cc1ccc2c(c1)OCO2)C(=O)C1CC(c2cccc(F)c2)=NO1 (stereo unspecified) ) = 53.68

Reported INHIBITION ( Cc1nc(NCC(O)CN2CCCCCC2)c2c(C)noc2n1 (stereo unspecified) ) = 30.87

Reported INHIBITION ( Cc1cnn(CC2CCCN2C(=O)c2cccc(-n3ccc(C)n3)c2)c1 (stereo unspecified) ) = 23.42

Reported INHIBITION ( CC(C)Oc1cccc(CNC(=O)N2CCC(N3CC=CC3)C2)c1 (stereo unspecified) ) = -21.25

Reported INHIBITION ( `O=C(NCCCN1CCOCC1)c1ccn(COc2ccc(F)cc2)n1` ) = 58.42

Reported INHIBITION ( `CC(C)Nc1cccc(CNC(=O)N2CCCC2)c1` ) = -24.87

Reported INHIBITION ( `CCc1cnc(C)nc1NCCN1CCCCCC1` ) = 7.08

Reported INHIBITION ( Cc1cc(CN(C)C(=O)C2CC(c3cccc(F)c3)=NO2)no1 (stereo unspecified) ) = -30.08

Reported INHIBITION ( CC(C)Nc1cccc(CNC(=O)N2CCC(N3CC=CC3)C2)c1 (stereo unspecified) ) = 58.34

Reported INHIBITION ( `O=C(NCCN1CCOCC1)c1ccc(-c2ccc(F)cc2)nc1O` ) = 58.75

Reported INHIBITION ( CC(=O)NCC1CCC2(CCN(c3ncnc4oc(C)nc34)CC2)O1 (stereo unspecified) ) = -7.91

Reported INHIBITION ( CC(Cn1cncn1)NCc1csc2c1CCCC2 (stereo unspecified) ) = 26.75

Reported INHIBITION ( `CN1CCN(S(=O)(=O)c2cncc(F)c2)c2ccccc2C1` ) = 52.73

Reported INHIBITION ( CC(=O)NCC1CCC2(CCN(c3ncc(C(C)=O)c(C)n3)CC2)O1 (stereo unspecified) ) = 11.37

Reported INHIBITION ( `CC(C)C[C@H](NC(=O)Nc1ccc(F)c(Cl)c1)C(=O)O` ) = -9.89

----------
system: Plasmodium berghei; test: Screen against P. berghei liver stage (PbLuc), transformed with Luciferase, at 2uM; format: functional, HepG2; conditions: tested at 2 uM
Among all 68,000 compounds or so, about 2,700 (4%) showed an effect of 50% or more. Only a selection was taken, and strong results are over-represented in it overall.
measuredAttribute: INHIBITION (%)
Give just the number in %; leave the unit off.

Reported INHIBITION ( `CCCC(=O)N1CCC(c2nn(C)c(=O)n2-c2ccccc2)CC1` ) = 60.64

Reported INHIBITION ( CN(C)c1nccc(C2CN(c3ccccc3)CCO2)n1 (stereo unspecified) ) = -39.97

Reported INHIBITION ( COCCN1CCCC(c2cncc(Oc3ccccc3OC)n2)C1 (stereo unspecified) ) = 41.56

Reported INHIBITION ( CC(C)N1CCOC(c2ccnc(N(C)C)n2)C1 (stereo unspecified) ) = -2.41

Reported INHIBITION ( `CCCn1cc(C(=O)NC2CCN(CC(=O)NC3CC3)CC2)c(C)n1` ) = 16.35

Reported INHIBITION ( `CCc1nc(C(=O)N2CCN(CC)CC2)nn1-c1ccccc1Cl` ) = 13.24
